Hi there, I'd appreciate the recorded glycan array binding signal (z-score) for every entry that follows.
- Target Entity: Gal(b1-3)[Fuc(a1-4)]GlcNAc
- Protocol Notes: glycan array binding signal (z-score within array); higher = stronger binding
- Condition Set: glycan notation: IUPAC condensed, linker removed
About 410 targets per protein were measured; listed, in parts, are those with the strongest signals and a random draw of the rest.
Numbers only.

>  <Binder>
Dectin2 (Homo sapiens), Q6EIG7 (protein) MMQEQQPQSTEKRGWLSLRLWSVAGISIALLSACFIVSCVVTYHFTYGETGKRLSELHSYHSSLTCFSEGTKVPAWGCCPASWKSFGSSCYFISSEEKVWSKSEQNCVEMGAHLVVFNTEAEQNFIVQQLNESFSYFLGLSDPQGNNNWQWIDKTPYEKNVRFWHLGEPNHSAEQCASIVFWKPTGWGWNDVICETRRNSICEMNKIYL

>  <glycan array binding signal (z-score)>
-0.15

$$$$

For every record below, what is its glycan array binding signal (z-score)?
1. TREM-2 (Mus musculus), Q99NH8 (protein) MGPLHQFLLLLITALSQALNTTVLQGMAGQSLRVSCTYDALKHWGRRKAWCRQLGEEGPCQRVVSTHGVWLLAFLKKRNGSTVIADDTLAGTVTITLKNLQAGDAGLYQCQSLRGREAEVLQKVLVEVLEDPLDDQDAGDLWVPEESSSFEGAQVEHSTSRNQETSFPPTSILLLLACVLLSKFLAASILWAVARGRQKPGTPVVRGLDCGQDAGHQLQILTGPGGT
2. CAA (Caragana arborescens) (protein) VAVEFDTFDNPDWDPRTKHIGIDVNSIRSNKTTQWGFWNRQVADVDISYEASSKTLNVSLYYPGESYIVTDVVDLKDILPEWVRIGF

A:
1. -0.368
2. -0.24

Kindly give each listed record's glycan array binding signal (z-score).
1. Langerin CRD (Homo sapiens), Q9UJ71 (protein) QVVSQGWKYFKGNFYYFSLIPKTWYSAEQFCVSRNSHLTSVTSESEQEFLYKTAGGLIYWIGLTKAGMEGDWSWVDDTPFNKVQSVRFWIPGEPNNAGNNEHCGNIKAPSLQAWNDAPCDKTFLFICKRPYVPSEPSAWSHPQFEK
2. Onconase (Rana pipiens), P22069 (protein) QDWLTFQKKHITNTRDVDCDNIMSTNLFHCKDKNTFIYSRPEPVKAICKGIIASKNVLTTSEFYLSDCNVTSRPCKYKLKKSTNKFCVTCENQAPVHFVGVGSC

A:
1: -0.279; 2: -0.553

Please state, for each entry, its recorded glycan array binding signal (z-score).
1. Clrb (Mus musculus) (protein) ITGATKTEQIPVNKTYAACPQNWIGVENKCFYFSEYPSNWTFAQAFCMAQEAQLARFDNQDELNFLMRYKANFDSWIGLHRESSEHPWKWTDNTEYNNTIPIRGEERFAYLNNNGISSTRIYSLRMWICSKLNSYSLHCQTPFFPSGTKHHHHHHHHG
2. Gal 8 (Homo sapiens), O00214 (protein) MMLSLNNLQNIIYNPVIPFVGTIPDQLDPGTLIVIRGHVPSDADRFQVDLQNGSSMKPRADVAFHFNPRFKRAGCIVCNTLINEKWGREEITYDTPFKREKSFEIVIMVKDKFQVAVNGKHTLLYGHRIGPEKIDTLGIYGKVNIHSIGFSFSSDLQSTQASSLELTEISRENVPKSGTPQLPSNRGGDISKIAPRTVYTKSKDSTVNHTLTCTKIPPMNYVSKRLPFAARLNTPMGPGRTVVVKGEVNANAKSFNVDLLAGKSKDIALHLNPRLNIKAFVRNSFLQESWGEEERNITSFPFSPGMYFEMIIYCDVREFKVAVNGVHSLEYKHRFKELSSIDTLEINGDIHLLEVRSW
3. SP15308B-bot-339-22-339 (Bacteroides ovatus) (protein) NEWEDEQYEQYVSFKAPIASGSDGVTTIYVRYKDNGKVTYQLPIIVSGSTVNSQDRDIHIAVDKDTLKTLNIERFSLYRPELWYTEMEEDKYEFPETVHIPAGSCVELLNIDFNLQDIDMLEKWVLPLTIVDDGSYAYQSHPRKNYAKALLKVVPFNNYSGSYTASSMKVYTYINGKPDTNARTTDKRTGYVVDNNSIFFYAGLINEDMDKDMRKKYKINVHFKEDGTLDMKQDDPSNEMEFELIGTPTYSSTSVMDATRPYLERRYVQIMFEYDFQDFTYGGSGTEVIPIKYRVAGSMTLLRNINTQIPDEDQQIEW
4. Surfactant Protein D (Human); Neck + Carbohydrate Recognition Domain (NCRD) (Homo sapiens) (protein) MLLFLLSALVLLTQPLGYLEAEMKTYSHRTMPSACTLVMCSSVESGLPGRDRDGREGPRGEKGDPGLPGAAGQAGMPGQAGPVGPKGDNGSVGEPGPKGDTGPSGPPGPPGVPGPAGREGALGKQGNIGPQGKPGPKGEAGPKGEVGAPGMQGSAGARGLAGPKGERGVPGERGVPGNTGAAGSAGAMGPQGSPGARGPPGLKGDKGIPGDKGAKGESGLPDVASLRQQVEALQGQVQHLQAAFSQYKKVELFPNGQSVGEKIFKTAQFVKPFTEAQLLCTQAGGQLASPRSAAENAALQQLVVAKNEAAFLSMTDSKTEGKFTYPTGESLVYSNWAPGEPNDDGGSEDCVEIFTNGKWNDRACGEKRLVVCEF
5. DC-ASGPR-short (Homo sapiens) (protein) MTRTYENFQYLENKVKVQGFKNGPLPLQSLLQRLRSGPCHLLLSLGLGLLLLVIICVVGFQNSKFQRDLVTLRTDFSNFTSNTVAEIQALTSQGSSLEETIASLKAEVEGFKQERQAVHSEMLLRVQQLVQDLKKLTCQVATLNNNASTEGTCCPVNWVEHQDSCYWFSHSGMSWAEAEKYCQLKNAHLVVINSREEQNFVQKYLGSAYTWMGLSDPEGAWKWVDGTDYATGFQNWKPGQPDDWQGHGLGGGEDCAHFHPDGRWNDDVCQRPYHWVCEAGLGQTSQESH

A:
-0.303
-0.413
-0.425
-0.233
-0.264
